Biological target: Bovine brain tubulin (Bos taurus, UniProt P81947+Q6B856)
Construct: from tissue; host or cells: bovine brain
Sequence (Q6B856 whole entry): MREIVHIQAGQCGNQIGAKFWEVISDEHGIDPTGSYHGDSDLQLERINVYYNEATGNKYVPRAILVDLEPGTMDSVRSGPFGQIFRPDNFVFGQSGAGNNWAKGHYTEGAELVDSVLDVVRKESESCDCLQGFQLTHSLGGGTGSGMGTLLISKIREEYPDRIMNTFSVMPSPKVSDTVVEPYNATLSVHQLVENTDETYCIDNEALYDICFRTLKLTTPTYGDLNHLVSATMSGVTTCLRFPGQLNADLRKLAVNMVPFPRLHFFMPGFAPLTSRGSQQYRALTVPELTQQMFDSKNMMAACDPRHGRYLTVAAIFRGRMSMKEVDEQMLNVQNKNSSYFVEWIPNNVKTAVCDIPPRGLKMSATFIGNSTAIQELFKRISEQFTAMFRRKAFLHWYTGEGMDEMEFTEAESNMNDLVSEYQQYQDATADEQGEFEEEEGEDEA
Sequence (P81947 whole entry): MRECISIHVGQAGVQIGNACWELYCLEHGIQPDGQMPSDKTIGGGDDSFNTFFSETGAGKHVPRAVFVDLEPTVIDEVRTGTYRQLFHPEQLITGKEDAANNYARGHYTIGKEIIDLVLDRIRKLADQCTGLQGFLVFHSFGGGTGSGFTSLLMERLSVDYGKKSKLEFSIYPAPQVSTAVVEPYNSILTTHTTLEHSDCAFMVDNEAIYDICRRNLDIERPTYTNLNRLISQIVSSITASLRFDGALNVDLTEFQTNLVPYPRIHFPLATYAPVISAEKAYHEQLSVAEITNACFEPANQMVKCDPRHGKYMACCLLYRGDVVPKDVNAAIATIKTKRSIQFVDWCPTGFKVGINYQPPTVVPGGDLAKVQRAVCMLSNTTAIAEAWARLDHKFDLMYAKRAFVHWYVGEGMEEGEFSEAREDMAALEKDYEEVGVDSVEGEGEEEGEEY
Test: Inhibition of [3H]colchicine binding to tubulin
Settings: 5 μM inhibitor, 1.0 μM tubulin, 5.0 μM [3H]colchicine, mean ±SD; read-out: CB [% inhib.] 5 μM inhibitor
Readout name: inhibition at 5 µM (%)

Input smiles: COc1cc(OC)cc(C(=O)N2CCc3cc(OS(N)(=O)=O)c(OC)cc3C2=O)c1
inhibition at 5 µM (%): 89
--
Input smiles: COc1cc2c(cc1OS(N)(=O)=O)CCN(C(=O)c1cc(OC)c(OC)c(OC)c1)C2=O
inhibition at 5 µM (%): 85
--
Input smiles: COc1cc2c(cc1O)CCN(C(=O)c1cc(OC)c(OC)c(OC)c1)C2=O
inhibition at 5 µM (%): 83
--
Input smiles: COc1cc(OC)cc(C(=O)N2CCc3cc(O)c(OC)cc3C2=O)c1
inhibition at 5 µM (%): 81

All figures here come from paper PMC4114533.
